- TARGET_SYSTEM: T1, integrin αVβ5 (UniProt P06756 31-992; P18084 24-719)
- T1 construct: Coated on the ELISA plate
- T1 sequence (P06756 31-992, chain 1 of 2): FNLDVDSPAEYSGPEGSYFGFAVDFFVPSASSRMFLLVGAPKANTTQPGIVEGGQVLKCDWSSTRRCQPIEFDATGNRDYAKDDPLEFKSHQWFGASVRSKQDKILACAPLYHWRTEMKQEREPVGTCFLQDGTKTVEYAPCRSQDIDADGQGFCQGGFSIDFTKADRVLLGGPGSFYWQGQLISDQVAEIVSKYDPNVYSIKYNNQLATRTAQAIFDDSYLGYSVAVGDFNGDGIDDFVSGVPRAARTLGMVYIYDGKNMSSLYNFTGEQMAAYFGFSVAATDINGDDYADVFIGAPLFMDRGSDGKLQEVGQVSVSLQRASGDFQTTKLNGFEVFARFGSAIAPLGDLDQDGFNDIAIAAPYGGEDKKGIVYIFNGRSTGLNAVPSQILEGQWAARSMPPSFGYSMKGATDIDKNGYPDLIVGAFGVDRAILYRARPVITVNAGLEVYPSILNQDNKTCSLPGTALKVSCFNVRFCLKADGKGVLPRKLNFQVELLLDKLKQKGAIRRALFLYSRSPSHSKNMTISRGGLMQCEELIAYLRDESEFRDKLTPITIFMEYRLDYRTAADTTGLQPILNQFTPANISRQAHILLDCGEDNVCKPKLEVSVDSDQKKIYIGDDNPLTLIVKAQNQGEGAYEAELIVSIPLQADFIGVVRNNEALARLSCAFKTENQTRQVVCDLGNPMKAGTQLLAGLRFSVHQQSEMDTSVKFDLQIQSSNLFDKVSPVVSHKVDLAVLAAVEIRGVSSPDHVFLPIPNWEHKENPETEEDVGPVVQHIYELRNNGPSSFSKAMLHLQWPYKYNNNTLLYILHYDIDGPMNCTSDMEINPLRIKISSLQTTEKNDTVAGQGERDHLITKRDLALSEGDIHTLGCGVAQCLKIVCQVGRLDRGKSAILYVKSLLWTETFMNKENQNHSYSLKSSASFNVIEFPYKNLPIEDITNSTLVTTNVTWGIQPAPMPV
- T1 sequence (P18084 24-719, chain 2 of 2): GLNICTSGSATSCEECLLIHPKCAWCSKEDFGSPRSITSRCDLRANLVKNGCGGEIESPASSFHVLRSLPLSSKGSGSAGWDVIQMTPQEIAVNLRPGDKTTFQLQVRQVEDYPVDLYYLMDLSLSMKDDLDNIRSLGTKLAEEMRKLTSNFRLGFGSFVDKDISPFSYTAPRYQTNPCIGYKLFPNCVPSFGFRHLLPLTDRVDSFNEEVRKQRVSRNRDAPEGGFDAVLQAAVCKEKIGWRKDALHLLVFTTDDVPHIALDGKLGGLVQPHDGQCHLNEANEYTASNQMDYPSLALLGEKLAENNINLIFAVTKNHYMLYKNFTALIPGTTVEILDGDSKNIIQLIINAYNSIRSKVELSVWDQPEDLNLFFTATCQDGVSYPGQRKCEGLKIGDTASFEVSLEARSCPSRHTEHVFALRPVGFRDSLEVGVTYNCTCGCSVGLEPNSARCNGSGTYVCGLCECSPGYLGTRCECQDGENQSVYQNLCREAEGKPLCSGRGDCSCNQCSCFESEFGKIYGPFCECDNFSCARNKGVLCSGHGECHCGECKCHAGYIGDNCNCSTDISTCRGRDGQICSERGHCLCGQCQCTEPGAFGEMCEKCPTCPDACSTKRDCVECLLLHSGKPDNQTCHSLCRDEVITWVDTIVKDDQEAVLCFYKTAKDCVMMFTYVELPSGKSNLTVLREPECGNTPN
- EXPERIMENTAL_PROTOCOL: ELISA, integrin coated, anti-MICA-HRP
ENDPOINT_LABEL: signal/ng (signal/ng)

# BINDER, ENDPOINT_LABEL, UOM, MEASUREMENT
rows = [
    ("soluble MICA generated by pKK39 (loop 3.4 in loop 1) (designed binder) HHHHHHEPHSLRYNLTVLSWDGSVQSGFLTEVHLDGQPFLRCDRQKCRAKPQGQWAEDVLGNKTWDRETRDLTGNGKDLRMTLAHIKDQKEGLHSLQEIRVCEIHEDNSTRSSQHFYYDGELFLSQNLETEEWTMPQSSRAQTLAMNVRNFLKEDAMKTKTHYHAMHADCLQELRRYLKSGVVLRRTVPPMVNVTRSARGDSDHRVTCRASGFYPWNITLSWRQDGVSLSHDTQQWGDVLPDGNGTYQTWVATRICQGEEQRFTCYMEHSGNHSTHPVPSGK", "signal/ng", "signal/ng", 19.7),
    ("soluble MICA generated by pKK42 (loop 5.3 in loop 1) (designed binder) HHHHHHEPHSLRYNLTVLSWDGSVQSGFLTEVHLDGQPFLRCDRQKCRAKPQGQWAEDVLGNKTWDRETRDLTGNGKDLRMTLAHIKDQKEGLHSLQEIRVCEIHEDNSTRSSQHFYYDGELFLSQNLETEEWTMPQSSRAQTLAMNVRNFLKEDAMKTKTHYHAMHADCLQELRRYLKSGVVLRRTVPPMVNVTHLARGDDLTYVTCRASGFYPWNITLSWRQDGVSLSHDTQQWGDVLPDGNGTYQTWVATRICQGEEQRFTCYMEHSGNHSTHPVPSGK", "signal/ng", "signal/ng", 22.8),
    ("soluble MICA generated by pKK38 (loop 3.3 in loop 1) (designed binder) HHHHHHEPHSLRYNLTVLSWDGSVQSGFLTEVHLDGQPFLRCDRQKCRAKPQGQWAEDVLGNKTWDRETRDLTGNGKDLRMTLAHIKDQKEGLHSLQEIRVCEIHEDNSTRSSQHFYYDGELFLSQNLETEEWTMPQSSRAQTLAMNVRNFLKEDAMKTKTHYHAMHADCLQELRRYLKSGVVLRRTVPPMVNVTRVPRGDSDLTVTCRASGFYPWNITLSWRQDGVSLSHDTQQWGDVLPDGNGTYQTWVATRICQGEEQRFTCYMEHSGNHSTHPVPSGK", "signal/ng", "signal/ng", 30.7),
    ("soluble MICA generated by pKK51 (extended loop 5.3sp in loop 3) (designed binder) EPHSLRYNLTVLSWDGSVQSGFLTEVHLDGQPFLRCDRQKCRAKPQGQWAEDVLGNKTWDRETRDLTGNGKDLRMTLAHIKDQKEGLHSLQEIRVCEIHEDNSTRSSQHFYYDGELFLSQNLETKEWTMPQSSRAQTLAMNVRNFLKEDAMKTKTHYHAMHADCLQELRRYLKSGVVLRRTVPPMVNVTRSEASEGNITVTCRASGFYPWNITLSWRQDGVSLSHDTQQWGDVLPDGNGTYQTWVATRISGGSGGGSHLARGDDLTYSGGSGGGCYMEHSGNHSTHPVPSGK", "signal/ng", "signal/ng", 10.9),
    ("soluble MICA generated by pKK44 (extended loop 3.2sp in loop 1) (designed binder) HHHHHHEPHSLRYNLTVLSWDGSVQSGFLTEVHLDGQPFLRCDRQKCRAKPQGQWAEDVLGNKTWDRETRDLTGNGKDLRMTLAHIKDQKEGLHSLQEIRVCEIHEDNSTRSSQHFYYDGELFLSQNLETEEWTMPQSSRAQTLAMNVRNFLKEDAMKTKTHYHAMHADCLQELRRYLKSGVVLRRTVPPMVNVTSGGSGGGSTSRGDHPRTQSGGSGGGVTCRASGFYPWNITLSWRQDGVSLSHDTQQWGDVLPDGNGTYQTWVATRICQGEEQRFTCYMEHSGNHSTHPVPSGK", "signal/ng", "signal/ng", 10),
]
